System: LPS-induced nitric oxide production in RAW264.7 cells
measurement description: LPS-induced NO production, Griess Reagent assay
Assay type: cell-based, mouse
recorded conditions: Mus musculus, compounds 10 μM, 1 h, then LPS (0.5 μg/mL) 24 h, read-out: Inhibition rate±SD (%) against NO production
Classes are defined on inhibition at 10 µM with ranges lowest: < 20%; middle: ≥ 20% and < 30%; highest: ≥ 30%

INSERT INTO measurements (smiles_text, tested_on, label_class) VALUES
  ('COc1cc(O)c(C(C)=O)cc1NC(=O)NCC(F)(F)F', 'LPS-induced nitric oxide production in RAW264.7 cells', 'middle'),
  ('COc1ccc(CNC(=O)Nc2cc(C(C)=O)c(O)cc2OC)cc1', 'LPS-induced nitric oxide production in RAW264.7 cells', 'lowest'),
  ('COc1ccc(C(C)=O)c(O)c1', 'LPS-induced nitric oxide production in RAW264.7 cells', 'lowest'),
  ('COc1ccccc1NC(=O)Nc1cc(C(C)=O)c(O)cc1OC', 'LPS-induced nitric oxide production in RAW264.7 cells', 'highest'),
  ('COc1cc(O)c(C(C)=O)cc1NC(=O)NCc1ccco1', 'LPS-induced nitric oxide production in RAW264.7 cells', 'middle'),
  ('COc1cccc(NC(=O)Nc2cc(C(C)=O)c(O)cc2OC)c1', 'LPS-induced nitric oxide production in RAW264.7 cells', 'highest'),
  ('CCNC(=O)Nc1cc(C(C)=O)c(O)cc1OC', 'LPS-induced nitric oxide production in RAW264.7 cells', 'lowest'),
  ('COc1ccc(CCNC(=O)Nc2cc(C(C)=O)c(O)cc2OC)cc1', 'LPS-induced nitric oxide production in RAW264.7 cells', 'highest'),
  ('COc1cc(O)c(C(C)=O)cc1NC(=O)N(C)C', 'LPS-induced nitric oxide production in RAW264.7 cells', 'highest'),
  ('COc1cc(O)c(C(C)=O)cc1NC(=O)Nc1ccc(OC(F)(F)F)cc1', 'LPS-induced nitric oxide production in RAW264.7 cells', 'middle'),
  ('COc1ccccc1CNC(=O)Nc1cc(C(C)=O)c(O)cc1OC', 'LPS-induced nitric oxide production in RAW264.7 cells', 'lowest'),
  ('COc1cc(O)c(C(C)=O)cc1NC(=O)NCCc1ccccc1F', 'LPS-induced nitric oxide production in RAW264.7 cells', 'lowest'),
  ('COc1cc(O)c(C(C)=O)cc1NC(=O)N1CCCC1', 'LPS-induced nitric oxide production in RAW264.7 cells', 'highest');
